Catalogue of EC50 readings, one per entry.
- Species: Rattus norvegicus
- test.name: Antioxidant activity in Wistar albino rat assessed as reduced glutathione activity
- Assay type: functional, organism-based
- experimental.parameters: Rattus norvegicus, Wistar albino; read-out: EC50

| compound | EC50 / µg/mL |
| --- | --- |
| CCOC(=O)C(NP1(=S)Oc2ccccc2CN1c1ccc(N2Cc3ccccc3OP2(=S)NC(C(=O)OCC)c2ccccc2)cc1)c1ccccc1 (stereo not given) | 2.15 |
| COC(=O)C(Cc1c[nH]cn1)NP1(=S)Oc2ccccc2CN1c1ccc(N2Cc3ccccc3OP2(=S)NC(Cc2c[nH]cn2)C(=O)OC)cc1 (stereo not given) | 1.45 |
| CCCC(NP1(=S)Oc2ccccc2CN1c1ccc(N2Cc3ccccc3OP2(=S)NC(CCC)C(=O)OCC)cc1)C(=O)OCC (stereo not given) | 2.5 |
| Oc1ccccc1CNc1ccc(NCc2ccccc2O)cc1 | 5.42 |
| CCCC(NP1(=S)Oc2ccccc2CN1c1ccc(N2Cc3ccccc3OP2(=S)NC(CCC)C(=O)OC)cc1)C(=O)OC (stereo not given) | 2.66 |
